- subject_of_test: FRMPD4, Q14CM0
- Sequence (Q14CM0 67-160): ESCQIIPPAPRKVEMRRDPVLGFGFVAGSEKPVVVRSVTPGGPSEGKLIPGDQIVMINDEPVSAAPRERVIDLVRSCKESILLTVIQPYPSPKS
- experiment_notes: holdup assay
- Design: key: below the threshold = too weak to quantify, mostly under pKd 3.1 to 4
- test_settings: plain residues with an end cap or a label only (N-terminal biotin on a linker: ado-ado)
experimental_endpoint: pKd

A selection of reference data follows.
[[record]]
binder = "KRPEMTSSSV [MUC3A, MUC3B, Q02505;Q9H195]"
experimental_endpoint = "pKd"
value_measured = "below the threshold"

[[record]]
binder = "QKAPTKEFYA [SDC2, P34741]"
experimental_endpoint = "pKd"
value_measured = 3.7

[[record]]
binder = "DFLSTFHIRI [CIB2, O75838]"
experimental_endpoint = "pKd"
value_measured = "below the threshold"

[[record]]
binder = "IDESKKEWLI [CNTNAP2, Q9UHC6]"
experimental_endpoint = "pKd"
value_measured = "below the threshold"

[[record]]
binder = "SVTSERETNI [SLC16A7, O60669]"
experimental_endpoint = "pKd"
value_measured = "below the threshold"


Query :: Assign pKd to the following record: RSSGGDDFWF [KCNV1, Q6PIU1]
Result :: 4.67

Query :: Assign pKd to the following record: MHIQEKGFHV [EPHA6, Q9UF33]
Result :: 3.77

Query :: Assign pKd to the following record: EDGESWEYQI [TRPV6, Q9H1D0]
Result :: 3.73

Query :: Assign pKd to the following record: TGLWKHETTV [ADGRA3, Q8IWK6]
Result :: below the threshold

Query :: Assign pKd to the following record: KPGKGSETVV [FZD4, Q9ULV1]
Result :: below the threshold
